Entries with reported MIC on Staph 9TV
measured_attribute: MIC (µg/mL)

Some compounds with recorded MIC:
>  <compound>
CC(=O)NC[C@H]1CN(c2ccc(-c3ccc(C=O)cc3)s2)C(=O)O1

>  <measured_target>
Staph 9TV

>  <reading>
0.25

$$$$
>  <compound>
CC(=O)NC[C@H]1CN(c2ccc(-c3ccccc3)s2)C(=O)O1

>  <measured_target>
Staph 9TV

>  <reading>
2

$$$$
>  <compound>
CC(=O)NC[C@H]1CN(c2ccc(-c3csc(C=O)c3)s2)C(=O)O1

>  <measured_target>
Staph 9TV

>  <reading>
2

$$$$
>  <compound>
CC(=O)NC[C@H]1CN(c2cc(Br)cs2)C(=O)O1

>  <measured_target>
Staph 9TV

>  <reading>
8

$$$$
>  <compound>
CC(=O)NC[C@H]1CN(c2ccc(-c3cccc(CO)c3)s2)C(=O)O1

>  <measured_target>
Staph 9TV

>  <reading>
8

$$$$

I. CC(=O)NC[C@H]1CN(c2ccc(-c3cccc(N)c3)s2)C(=O)O1
II. CC(=O)NC[C@H]1CN(c2cc(-c3ccc(C=O)cc3)cs2)C(=O)O1
III. CC(=O)NC[C@H]1CN(c2ccc(-c3ccc(CO)cc3)s2)C(=O)O1
IV. CC(=O)NC[C@H]1CN(c2ccc(-c3ccccc3C=O)s2)C(=O)O1
Order the entries by their reported MIC, beginning at the minimum. Response format: the labels, sorted as the prompt asks.
IV, III, I, II

P. CC(=O)NC[C@H]1CN(c2ccc(-c3ccc(F)cc3)s2)C(=O)O1
Q. CC(=O)NC[C@H]1CN(c2cc3cc(Br)ccc3s2)C(=O)O1
Would you kindly point out which of P and Q has the smaller MIC figure? Returns: label corresponding to the selected item.
P

P. CC(=O)NC[C@H]1CN(c2ccc(-c3ccc(C)cc3)s2)C(=O)O1
Q. CC(=O)NC[C@H]1CN(c2ccc(-c3ccc(C(C)=O)cc3)s2)C(=O)O1
Which numeric MIC is bigger, that of P or that of Q ? Returns: label corresponding to the selected item.
P
(P: 1 µg/mL, Q: 0.5 µg/mL)
